# Test system: MCF7 breast
# measurementDescription: NCI tumour cell line growth inhibition, 48 h; in the data active = GI50 below about 0.43 µM; inactive = the rest
Allowed answers: active, inactive

Consider the following illustrative entries.
molecule: CC(C)C[C@H](NC(=O)[C@H](Cc1cccc2ccccc12)NS(=O)(=O)c1cccc2cccnc12)B(O)O
targetOrTestSystem: MCF7 breast
labelValue: active
//
molecule: Nc1ccc(C(OC(=O)c2cc3ccccc3c(Cc3c(O)c(C(=O)OC(c4ccc(N)cc4)(c4ccc(N)cc4)c4ccc(N)cc4)cc4ccccc34)c2O)(c2ccc(N)cc2)c2ccc(N)cc2)cc1
targetOrTestSystem: MCF7 breast
labelValue: inactive
//
molecule: CCC1(NC(=O)c2cc(F)c(F)c(F)c2F)C(=O)NC(=O)N(C(C)C)C1=O (configuration not stated)
targetOrTestSystem: MCF7 breast
labelValue: inactive
//
molecule: O=c1oc2c3ccc4cnccc4c3[nH]c2c2ccccc12
targetOrTestSystem: MCF7 breast
labelValue: inactive

Lookup: Which outcome was entered for the molecule C=C1C(OC/C=C/COC2O[C@@H]3O[C@@]4(C)CC[C@H]5[C@H](C)CC[C@@H](C2=C)[C@@]35OO4)O[C@@H]2O[C@@]3(C)CC[C@H]4[C@H](C)CC[C@@H]1[C@@]24OO3 (some centres not stated) in this test?
Found: active

Lookup: Which outcome was entered for the molecule O=C(COc1cccc(/C=C2\Oc3ccc4ccccc4c3C2=O)c1)c1ccc(Cl)cc1 in this test?
Found: inactive

Lookup: Which outcome was entered for the molecule Cc1cc(C)c(S(=O)(=O)N(CCc2cccc(Br)c2)Cc2ccc(-c3cccc(S(C)(=O)=O)c3)cc2)c(C)c1 in this test?
Found: inactive
